Data origin, for the record: the supplement of paper PMC9112550

Test system: Escherichia coli TOP10
experiment.notes: shrunken log2 fold change of peptide-encoding DNA abundance (4.5 h post-induction vs induction); higher = less antimicrobial activity (less host growth inhibition)
cond: time post-induction: 4.5 h; library: site-saturation at positions 5, 18, 19, 20
This section presents sequences with their documented shrunken log2 fold change values.

residue.sequence: RRIRYRPPRLPRPRPRPTCKPRP
measurement.target: Escherichia coli TOP10
shrunken log2 fold change: -0.178
//
residue.sequence: RRIRERPPRLPRPRPRPKDGPRP
measurement.target: Escherichia coli TOP10
shrunken log2 fold change: 0.0062
//
residue.sequence: RRIRCRPPRLPRPRPRPHCLPRP
measurement.target: Escherichia coli TOP10
shrunken log2 fold change: -1.4
//
residue.sequence: RRIRWRPPRLPRPRPRPIHMPRP
measurement.target: Escherichia coli TOP10
shrunken log2 fold change: -0.246
//
residue.sequence: RRIRARPPRLPRPRPRPHSRPRP
measurement.target: Escherichia coli TOP10
shrunken log2 fold change: -0.0946
//
residue.sequence: RRIRCRPPRLPRPRPRPLVVPRP
measurement.target: Escherichia coli TOP10
shrunken log2 fold change: -0.347
//
residue.sequence: RRIRIRPPRLPRPRPRPNIPPRP
measurement.target: Escherichia coli TOP10
shrunken log2 fold change: -0.818
//
residue.sequence: RRIRVRPPRLPRPRPRPFRGPRP
measurement.target: Escherichia coli TOP10
shrunken log2 fold change: 0.0214

* * *

System: Escherichia coli TOP10
experiment.notes: shrunken log2 fold change of peptide-encoding DNA abundance (4.5 h post-induction vs induction); higher = less antimicrobial activity (less host growth inhibition)
cond: time post-induction: 4.5 h; library: site-saturation at positions 5, 18, 19, 20
Listed next: entries and their corresponding shrunken log2 fold change.

residue.sequence: RRIRTRPPRLPRPRPRPTDNPRP
measurement.target: Escherichia coli TOP10
shrunken log2 fold change: -0.302

residue.sequence: RRIRGRPPRLPRPRPRPCEPPRP
measurement.target: Escherichia coli TOP10
shrunken log2 fold change: 0.241

residue.sequence: RRIRARPPRLPRPRPRPDIRPRP
measurement.target: Escherichia coli TOP10
shrunken log2 fold change: 0.148

residue.sequence: RRIRVRPPRLPRPRPRPDFPPRP
measurement.target: Escherichia coli TOP10
shrunken log2 fold change: 0.0164

residue.sequence: RRIRMRPPRLPRPRPRPLTYPRP
measurement.target: Escherichia coli TOP10
shrunken log2 fold change: -0.0782

residue.sequence: RRIRFRPPRLPRPRPRPGFDPRP
measurement.target: Escherichia coli TOP10
shrunken log2 fold change: 0.0857

residue.sequence: RRIRRRPPRLPRPRPRPYMCPRP
measurement.target: Escherichia coli TOP10
shrunken log2 fold change: 0.154

residue.sequence: RRIRMRPPRLPRPRPRPEGSPRP
measurement.target: Escherichia coli TOP10
shrunken log2 fold change: 3.63

residue.sequence: RRIRLRPPRLPRPRPRPVLPPRP
measurement.target: Escherichia coli TOP10
shrunken log2 fold change: -0.0546

residue.sequence: RRIRHRPPRLPRPRPRPSDHPRP
measurement.target: Escherichia coli TOP10
shrunken log2 fold change: -0.548

residue.sequence: RRIRYRPPRLPRPRPRPVDIPRP
measurement.target: Escherichia coli TOP10
shrunken log2 fold change: -0.00973

residue.sequence: RRIRARPPRLPRPRPRPDSGPRP
measurement.target: Escherichia coli TOP10
shrunken log2 fold change: 0.18

residue.sequence: RRIRFRPPRLPRPRPRPKFDPRP
measurement.target: Escherichia coli TOP10
shrunken log2 fold change: -0.0676

residue.sequence: RRIRVRPPRLPRPRPRPCKCPRP
measurement.target: Escherichia coli TOP10
shrunken log2 fold change: -0.239

residue.sequence: RRIRNRPPRLPRPRPRPGQGPRP
measurement.target: Escherichia coli TOP10
shrunken log2 fold change: -0.0357

* * *

Tested on: Escherichia coli TOP10;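 note: peptides expressed intracellularly from a pBAD plasmid library in pooled LB shake-flask culture, induced with 0.3% L-arabinose, DNA abundance read by NGS, three biological replicates, DESeq2 with apeglm shrinkage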
experiment.notes: shrunken log2 fold change of peptide-encoding DNA abundance (4.5 h post-induction vs induction); higher = less antimicrobial activity (less host growth inhibition)
cond: time post-induction: 4.5 h; library: site-saturation at positions 5, 18, 19, 20
Rule: shrunken log2 fold change under -0.005 gives FALSE, otherwise TRUE.

residue.sequence: RRIRWRPPRLPRPRPRPIHPPRP
classification: FALSE
--
residue.sequence: RRIRWRPPRLPRPRPRPGCWPRP
classification: TRUE
--
residue.sequence: RRIRGRPPRLPRPRPRPFFMPRP
classification: TRUE
--
residue.sequence: RRIRLRPPRLPRPRPRPPATPRP
classification: TRUE
--
residue.sequence: RRIRDRPPRLPRPRPRPGFWPRP
classification: TRUE
--
residue.sequence: RRIRNRPPRLPRPRPRPEQGPRP
classification: TRUE
--
residue.sequence: RRIRYRPPRLPRPRPRPYKRPRP
classification: FALSE
--
residue.sequence: RRIRRRPPRLPRPRPRPMDFPRP
classification: TRUE
--
residue.sequence: RRIRSRPPRLPRPRPRPRDFPRP
classification: TRUE
--
residue.sequence: RRIRKRPPRLPRPRPRPWMFPRP
classification: TRUE
--
residue.sequence: RRIRIRPPRLPRPRPRPPKMPRP
classification: FALSE
--
residue.sequence: RRIRARPPRLPRPRPRPWMIPRP
classification: FALSE
--
residue.sequence: RRIRCRPPRLPRPRPRPSVPPRP
classification: FALSE
--
residue.sequence: RRIRGRPPRLPRPRPRPQCAPRP
classification: TRUE
--
residue.sequence: RRIRWRPPRLPRPRPRPRLMPRP
classification: TRUE
--
residue.sequence: RRIRKRPPRLPRPRPRPSVDPRP
classification: TRUE
--
residue.sequence: RRIRERPPRLPRPRPRPLGGPRP
classification: FALSE
--
residue.sequence: RRIRTRPPRLPRPRPRPWCCPRP
classification: FALSE
--
residue.sequence: RRIRTRPPRLPRPRPRPHLRPRP
classification: FALSE
--
residue.sequence: RRIRRRPPRLPRPRPRPDDQPRP
classification: TRUE
--
residue.sequence: RRIRPRPPRLPRPRPRPSDLPRP
classification: FALSE
--
residue.sequence: RRIRKRPPRLPRPRPRPAREPRP
classification: TRUE
--
residue.sequence: RRIRHRPPRLPRPRPRPFTAPRP
classification: FALSE
--
residue.sequence: RRIRFRPPRLPRPRPRPRPVPRP
classification: TRUE
--
residue.sequence: RRIRTRPPRLPRPRPRPGHAPRP
classification: TRUE
--
residue.sequence: RRIRYRPPRLPRPRPRPPCAPRP
classification: TRUE
--
residue.sequence: RRIRFRPPRLPRPRPRPLCAPRP
classification: FALSE
--
residue.sequence: RRIRARPPRLPRPRPRPINWPRP
classification: TRUE
--
residue.sequence: RRIRGRPPRLPRPRPRPLMIPRP
classification: TRUE
--
residue.sequence: RRIRWRPPRLPRPRPRPKEVPRP
classification: TRUE
--
residue.sequence: RRIRGRPPRLPRPRPRPWMIPRP
classification: TRUE
--
residue.sequence: RRIRERPPRLPRPRPRPFDAPRP
classification: FALSE
--
residue.sequence: RRIRKRPPRLPRPRPRPVQWPRP
classification: TRUE
--
residue.sequence: RRIRKRPPRLPRPRPRPQGVPRP
classification: FALSE
--
residue.sequence: RRIRPRPPRLPRPRPRPLTLPRP
classification: TRUE
--
residue.sequence: RRIRGRPPRLPRPRPRPDGSPRP
classification: TRUE
--
residue.sequence: RRIRPRPPRLPRPRPRPCWLPRP
classification: FALSE
--
residue.sequence: RRIRERPPRLPRPRPRPDGHPRP
classification: TRUE
--
residue.sequence: RRIRIRPPRLPRPRPRPNVAPRP
classification: TRUE
--
residue.sequence: RRIRWRPPRLPRPRPRPSFKPRP
classification: FALSE
--
residue.sequence: RRIRERPPRLPRPRPRPDPSPRP
classification: TRUE
--
residue.sequence: RRIRLRPPRLPRPRPRPFVPPRP
classification: FALSE
--
residue.sequence: RRIRIRPPRLPRPRPRPMFTPRP
classification: FALSE
--
residue.sequence: RRIRQRPPRLPRPRPRPGIAPRP
classification: TRUE
--
residue.sequence: RRIRQRPPRLPRPRPRPWWNPRP
classification: FALSE
--
residue.sequence: RRIRVRPPRLPRPRPRPQPIPRP
classification: FALSE
--
residue.sequence: RRIRIRPPRLPRPRPRPDPKPRP
classification: FALSE
--
residue.sequence: RRIRTRPPRLPRPRPRPVNLPRP
classification: FALSE
--
residue.sequence: RRIRWRPPRLPRPRPRPERCPRP
classification: TRUE
--
residue.sequence: RRIRDRPPRLPRPRPRPVEYPRP
classification: TRUE
--
residue.sequence: RRIRYRPPRLPRPRPRPKVIPRP
classification: FALSE
--
residue.sequence: RRIRVRPPRLPRPRPRPGSHPRP
classification: TRUE
--
residue.sequence: RRIRHRPPRLPRPRPRPNFVPRP
classification: FALSE
--
residue.sequence: RRIRCRPPRLPRPRPRPGFNPRP
classification: FALSE
--
residue.sequence: RRIRDRPPRLPRPRPRPHIQPRP
classification: FALSE
--
residue.sequence: RRIRNRPPRLPRPRPRPLADPRP
classification: TRUE
--
residue.sequence: RRIRMRPPRLPRPRPRPWGKPRP
classification: TRUE
--
residue.sequence: RRIRVRPPRLPRPRPRPFARPRP
classification: TRUE
--
residue.sequence: RRIRSRPPRLPRPRPRPETQPRP
classification: TRUE
--
residue.sequence: RRIRDRPPRLPRPRPRPRYPPRP
classification: FALSE
--
residue.sequence: RRIRTRPPRLPRPRPRPATPPRP
classification: TRUE
--
residue.sequence: RRIRMRPPRLPRPRPRPMPTPRP
classification: TRUE
--
residue.sequence: RRIRERPPRLPRPRPRPMLAPRP
classification: TRUE
